target: human Y4 receptor (human, UniProt P50391 1-375); experiment: 125I-PP displacement
Sequence (P50391 whole entry): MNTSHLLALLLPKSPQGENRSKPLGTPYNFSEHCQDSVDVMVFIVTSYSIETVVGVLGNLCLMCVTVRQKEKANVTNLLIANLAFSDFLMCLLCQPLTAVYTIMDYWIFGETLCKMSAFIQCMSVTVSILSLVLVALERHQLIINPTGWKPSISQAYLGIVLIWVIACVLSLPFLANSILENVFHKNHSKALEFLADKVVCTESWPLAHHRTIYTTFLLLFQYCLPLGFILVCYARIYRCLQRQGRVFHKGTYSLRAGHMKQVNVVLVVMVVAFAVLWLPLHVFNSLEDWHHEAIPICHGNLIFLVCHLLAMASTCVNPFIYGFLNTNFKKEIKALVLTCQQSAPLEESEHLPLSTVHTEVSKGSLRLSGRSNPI

{"binder": "AAPLEPHYPGDNATPEQLARYYSELRRYINKLTRPRY [4059969]", "IC50, nM": 0.05}
{"binder": "DAPLEPVYPGDNATPEQMAKYYSELRRYINKLTRPRY [4060148]", "IC50, nM": 0.095}
{"binder": "GAPLEPEYPGDNATPEQMARYAASLRRYINKLTRPRY [4060202]", "IC50, nM": 0.061}
